Reported IC50 values for a set of compounds
TARGET OF ASSAY: PD-L1 His protein / PD-1 Fc protein (Homo sapiens, UniProt Q9NZQ7)
Sequence (Q9NZQ7 19-238 limits assumed): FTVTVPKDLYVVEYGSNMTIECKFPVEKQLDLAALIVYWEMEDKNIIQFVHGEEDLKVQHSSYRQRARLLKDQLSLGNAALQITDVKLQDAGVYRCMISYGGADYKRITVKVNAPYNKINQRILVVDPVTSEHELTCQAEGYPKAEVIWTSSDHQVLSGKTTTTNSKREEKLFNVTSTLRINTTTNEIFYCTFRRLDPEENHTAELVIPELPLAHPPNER
PROCEDURE TEXT: HTRF Assay (PD-1/PD-L1 interaction)
APPLIED CONDITIONS: PD-L1 His 6 nM, PD-1 Fc 6 nM
Kindly provide the numeric value in nM only, without the unit symbol.

For orientation, consider the following solved cases.
{"columns": ["COMPOUND", "TARGET OF ASSAY", "QUANTITATIVE RESULT"],
 "data": [
  ["COc1nc(-c2cccc(-c3cccc(-c4ccn5c(=O)c(CNCCO)cnc5c4)c3Cl)c2Cl)ccc1CNCCO [Example 75]", "PD-L1 His protein / PD-1 Fc protein (Homo sapiens, UniProt Q9NZQ7)", 3.4],
  ["Cc1c(COc2cc(OCc3cncc(C#N)c3)c(CNC[C@@H]3CCC(=O)N3)cc2Cl)cccc1-c1cccc(-c2ccc3c(c2)C(=O)N(C)CC(=O)N3CCNC[C@@H]2CCC(=O)N2)c1C [Example 20]", "PD-L1 His protein / PD-1 Fc protein (Homo sapiens, UniProt Q9NZQ7)", 4.2],
  ["COC(=O)c1cnc(-c2cnc3cc(-c4cccc(-c5cccc(-c6ccc(CNC[C@@H]7CCC(=O)N7)c(OC)n6)c5Cl)c4Cl)ccn3c2=O)[nH]1 [Example 167]", "PD-L1 His protein / PD-1 Fc protein (Homo sapiens, UniProt Q9NZQ7)", 0.5]
]}

Entry COc1nc(-c2cccc(-c3cccc(-c4ccn5c(=O)c(C6=NCC(O)CN6)c(C)nc5c4)c3Cl)c2Cl)ccc1CNC[C@@H]1CCC(=O)N1 (stereo partly drawn) [Example 290] — recorded IC50 = 0.4

Entry COc1nc(-c2cccc(-c3cccc(-c4ccn5c(=O)c(CNCCCC(=O)O)cnc5c4)c3Cl)c2Cl)ccc1CNC[C@@H]1CCC(=O)N1 [Example 160] — recorded IC50 = 0.7

Entry COc1nc(-c2cccc(-c3cccc(-c4ccn5c(=O)c(CN6CCNC(=O)CC6)cnc5c4)c3Cl)c2Cl)ccc1CNC[C@@H]1CCC(=O)N1 [Example 327] — recorded IC50 = 0.1

====

Reported IC50 values for a set of compounds
TARGET OF ASSAY: PD-L1 His protein / PD-1 Fc protein (Homo sapiens)
PROCEDURE TEXT: HTRF Assay (PD-1/PD-L1 interaction)
APPLIED CONDITIONS: PD-L1 His 6 nM, PD-1 Fc 6 nM
Kindly provide the numeric value in µM only, without the unit symbol.

For orientation, consider the following solved cases.
{"columns": ["COMPOUND", "TARGET OF ASSAY", "IC50 / µM"],
 "data": [
  ["COc1nc(NCCNC(C)=O)cnc1-c1cccc(-c2cccc(-c3ncc(NCCNC(C)=O)nc3OC)c2Cl)c1Cl [Example 39]", "PD-L1 His protein / PD-1 Fc protein (Homo sapiens)", 1],
  ["COC(=O)C[C@H](O)CNCc1nn2cc(-c3cccc(-c4cccc(-c5ccc(CNC[C@@H]6CCC(=O)N6)c(OC)n5)c4Cl)c3Cl)cc2c(=O)n1C [Example 489]", "PD-L1 His protein / PD-1 Fc protein (Homo sapiens)", 1.5]
]}

Field: next compound
COc1nc(-c2cccc(-c3cccc(-c4ccn5c(=O)c(CN(C)CCNC(=O)OC(C)(C)C)cnc5c4)c3Cl)c2Cl)ccc1CN(C)CCNC(=O)OC(C)(C)C [Example 277] tested on PD-L1 His protein / PD-1 Fc protein (Homo sapiens) gave IC50: 0.2

====

TARGET OF ASSAY: PD-L1 His protein / PD-1 Fc protein (Homo sapiens, UniProt Q9NZQ7)
PROCEDURE TEXT: HTRF Assay (PD-1/PD-L1 interaction)
APPLIED CONDITIONS: PD-L1 His 6 nM, PD-1 Fc 6 nM
Reported IC50 values for a set of molecules
Kindly provide the numeric value in nM only, without the unit symbol.

For orientation, consider the following solved cases.
{"columns": ["MOLECULE", "OUTPUT UNIT", "QUANTITATIVE RESULT"],
 "data": [
  ["COc1nc(-c2cccc(-c3cccc(-c4cc(F)c(CNC[C@@H]5CCC(=O)N5)c(OC)n4)c3Cl)c2Cl)cc(F)c1CNC[C@@H]1CCC(=O)N1", "nM", 1.2],
  ["COc1nc(-c2cccc(-c3cccc(-c4ccn5c(=O)c(CN6C[C@@H](O)C[C@@H]6C(=O)O)cnc5c4)c3Cl)c2Cl)ccc1CNC[C@@H]1CCC(=O)N1", "nM", 0.3],
  ["COC(=O)C1CN(Cc2cc(=O)n3ccc(-c4cccc(-c5cccc(-c6ccc(CNC[C@@H]7CCC(=O)N7)c(OC)n6)c5Cl)c4Cl)cc3n2)C1", "nM", 0.1],
  ["CNC(=O)C(C)(C)NCc1cc(=O)n2ccc(-c3cccc(-c4cccc(-c5ccc(CNC[C@@H]6CCC(=O)N6)c(OC)n5)c4Cl)c3Cl)cc2n1", "nM", 0.1],
  ["COc1nc(-c2cccc(-c3cccc(-c4ccn5c(=O)c(CN[C@@H](CO)C(=O)O)cnc5c4)c3Cl)c2Cl)ccc1CNCCO", "nM", 0.1]
]}

Cc1c(-c2ccn3c(=O)c(CNC[C@@H]4CCC(=O)N4)cnc3c2)cccc1-c1cccc(-c2ccc3c(c2)CC(N)C3)c1Cl (mixture of isomers) tested on PD-L1 His protein / PD-1 Fc protein (Homo sapiens, UniProt Q9NZQ7) gave IC50: 61

COc1nc(-c2cccc(-c3cccc(-c4cc5c(=O)n(C)c(CNC6CC(C)(O)C6)nn5c4)c3Cl)c2Cl)cc(F)c1CNC[C@@H]1CCC(=O)N1 (some centres unmarked) tested on PD-L1 His protein / PD-1 Fc protein (Homo sapiens, UniProt Q9NZQ7) gave IC50: 69

Cc1c(COc2cc(OCc3cncc(C#N)c3)c(CNC[C@@H]3CCC(=O)N3)cc2Cl)cccc1-c1cccc(-c2ccn3c(=O)c(CNC[C@@H]4CCC(=O)N4)ccc3c2)c1C tested on PD-L1 His protein / PD-1 Fc protein (Homo sapiens, UniProt Q9NZQ7) gave IC50: 0.5

COC(=O)C1(CNCc2cnc3cc(-c4cccc(-c5cccc(-c6ccc(CNC[C@@H]7CCC(=O)N7)c(OC)n6)c5Cl)c4Cl)ccn3c2=O)COC1 tested on PD-L1 His protein / PD-1 Fc protein (Homo sapiens, UniProt Q9NZQ7) gave IC50: 0.1

COc1nc(-c2cccc(-c3cccc(-c4ccn5c(=O)c(CN6CC7(C(=O)O)CCC6CC7)cnc5c4)c3Cl)c2Cl)ccc1CNC[C@@H]1CCC(=O)N1 tested on PD-L1 His protein / PD-1 Fc protein (Homo sapiens, UniProt Q9NZQ7) gave IC50: 0.3

COC(=O)[C@H](CO)NCc1ccc(-c2cccc(-c3cccc(-c4ccn5c(=O)c(CNC[C@@H]6CCC(=O)N6)cnc5c4)c3Cl)c2Cl)nc1OC tested on PD-L1 His protein / PD-1 Fc protein (Homo sapiens, UniProt Q9NZQ7) gave IC50: 54

COc1nc(-c2cccc(-c3cccc(-c4cc(=O)n5cc(CNC[C@@H]6CCC(=O)N6)ccc5n4)c3Cl)c2Cl)ccc1CNC[C@@H]1CCC(=O)N1 tested on PD-L1 His protein / PD-1 Fc protein (Homo sapiens, UniProt Q9NZQ7) gave IC50: 2.9

====

TARGET OF ASSAY: PD-L1 His protein / PD-1 Fc protein (Homo sapiens, UniProt Q9NZQ7)
PROCEDURE TEXT: HTRF Assay (PD-1/PD-L1 interaction)
APPLIED CONDITIONS: PD-L1 His 6 nM, PD-1 Fc 6 nM
ENDPOINT NAME: pIC50
Friendly reminder that pIC50 comes from taking -log10 of the concentration in mol/L.

Entry COc1nc(-c2cccc(-c3cccc(-c4cc5c(=O)n(C)c(CNCC(C)(C)F)nn5c4)c3Cl)c2Cl)ccc1CNC[C@@H]1CCC(=O)N1 — recorded pIC50 = 7.24

Entry COc1cc(-c2cccc(-c3cccc(-c4ccn5c(=O)c(CNC[C@@H]6CCC(=O)N6)cnc5c4)c3Cl)c2Cl)ccc1CNC[C@@H]1CCC(=O)N1 — recorded pIC50 = 8.82

====

TARGET OF ASSAY: PD-L1 His protein / PD-1 Fc protein (Homo sapiens, UniProt Q9NZQ7)
PROCEDURE TEXT: HTRF Assay (PD-1/PD-L1 interaction)
APPLIED CONDITIONS: PD-L1 His 6 nM, PD-1 Fc 6 nM
Description: PD-L1 His protein was prepared and added at the final concentration of 6 nM in the White opaque 384 well plate (Corning cat #3824BC). PD-L1 small molecule inhibitors were diluted by 3-fold starting from 20 μM and a final concentration of 0.001 μM and added to the well. PD-1 Fc protein was added at the final concentration of 6 nM. […] The plate was read using PerkinElmer Envision plate reader and data was analyzed by Prism 6 software.
Labels assigned by IC50 range: low band: < 0.6 nM; middle band: ≥ 0.6 nM and < 10 nM; high band: ≥ 10 nM

{"columns": ["COMPOUND", "ASSIGNED CLASS"],
 "data": [
  ["Cc1c(-c2ccn3c(=O)c(CNC[C@@H]4CCC(=O)N4)cnc3c2)cccc1-c1cccc(-c2ccc3c(n2)N(C)CCC3NC[C@@H]2CCC(=O)N2)c1Cl (mixture of isomers)", "high band"],
  ["COc1nc(-c2cccc(-c3cccc(-c4cc5c(=O)n(C)c(CN6CC(C)(O)C6)nn5c4)c3Cl)c2Cl)ccc1CNC[C@@H]1CCC(=O)N1", "middle band"]
]}

Determine which band this compound sits in: COc1nc(-c2cccc(-c3cccc(-c4ccn5c(=O)c(CNC[C@@H]6CCC(=O)N6)cnc5c4)c3Cl)c2Cl)ccc1CN1CC(C(C)(C)O)C1 middle band

Determine which band this compound sits in: COc1nc(-c2cccc(-c3cccc(-c4ccc5nc(C(=O)NCCc6c[nH]cn6)cn5n4)c3Cl)c2Cl)ccc1CNC[C@@H]1CCC(=O)N1 high band

Determine which band this compound sits in: COC(=O)C1CN(Cc2c(C)nc3cc(-c4cccc(-c5cccc(-c6ccc(CNC[C@@H]7CCC(=O)N7)c(OC)n6)c5Cl)c4Cl)ccn3c2=O)C1 low band

Determine which band this compound sits in: COc1nc(-c2cccc(-c3cccc(-c4ccc5c(c4)N(C)CCNC5)c3Cl)c2Cl)ccc1CNC[C@@H]1CCC(=O)N1 high band

Determine which band this compound sits in: COc1nc(-c2cccc(-c3cccc(-c4ccn5c(=O)c(CNCC(C)(C)O)cnc5c4)c3Cl)c2Cl)ccc1CNC[C@@H]1CCC(=O)N1 middle band

Determine which band this compound sits in: COc1nc(-c2cccc(-c3cccc(-c4ccn5c(=O)c(CNC[C@@H](O)CC(N)=O)cnc5c4)c3Cl)c2Cl)ccc1CNC[C@@H]1CCC(=O)N1 low band

Determine which band this compound sits in: COc1nc(-c2cccc(-c3cccc(-c4cc5c(=O)n(C)c(CNCCCF)nn5c4)c3Cl)c2Cl)cc(Cl)c1CNC[C@@H]1CCC(=O)N1 low band

Determine which band this compound sits in: COc1nc(-c2cccc(-c3cccc(-c4ccc5c(n4)N(C)CCC5NC[C@@H]4CCC(=O)N4)c3Cl)c2Cl)cnc1CNC[C@@H]1CCC(=O)N1 (mixture of isomers) middle band
